- Test: blockers of RIG-like receptor reporter activation – cell-based, Sendai virus stimulus, luciferase, 10K MLSCN set, TLR/RLR signaling modifier project, primary screen (AID 602276);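 further: firefly luciferase from ISG56 promoter only with Renilla not read in this screen; 0% = Sendai virus plus DMSO and 100% = medium plus DMSO without virus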
- Conditions: HEK293 RL24 IRF3 luciferase reporter, at 10 µM, stronger effect = higher value
Would you please tag the item 1 when its inhibition is 10% or above, and -1 when it is below?

[[record]]
compound = "CC(=O)Nc1ccc(S(=O)(=O)NCC2CCC(C(=O)NCCCN3CCCC3=O)CC2)cc1 (stereo not given)"
label_class = 1

[[record]]
compound = "CCn1cc(C(=O)O)c(=O)c2cc(F)c(N3CCN(C(=O)Nc4ccccc4)CC3)cc21"
label_class = -1

[[record]]
compound = "CN(C)CC(C(=O)c1ccccc1)c1ccccc1 (stereo not given)"
label_class = 1

[[record]]
compound = "COc1cccc(-n2nc(C(=O)Nc3ccc4c(c3)OCO4)c3ccccc3c2=O)c1"
label_class = -1

[[record]]
compound = "O=C1CCCC(O)=C1C=Nc1ccc2c(c1)oc1ccccc12"
label_class = -1

[[record]]
compound = "O=C(C1CCCN(S(=O)(=O)c2cnc[nH]2)C1)N1CC(=O)N(CCc2ccccc2)C(=O)C1 (stereo not given)"
label_class = -1

[[record]]
compound = "Cc1ccc(Cn2c(CN3CCOCC3)nc3c2c(=O)n(C)c(=O)n3C)cc1"
label_class = -1

[[record]]
compound = "Cc1c(C(=O)OCC(C)C)[nH]c2c1C(=O)CC(c1ccco1)C2 (stereo not given)"
label_class = 1

[[record]]
compound = "Cc1cc(=O)n2nc(N3CCCC(C(=O)N4CCN(C)CC4)C3)sc2n1 (stereo not given)"
label_class = -1

[[record]]
compound = "CC1=CCC2C(=O)N(c3nc(C)cc(C)n3)C(=O)C2C1 (stereo not given)"
label_class = 1

[[record]]
compound = "CCOC(=O)C1CCN(C(=O)COc2ccc(S(=O)(=O)NC(C)C)cc2Cl)CC1"
label_class = 1

[[record]]
compound = "Cc1cc(C)nc(NC(=O)c2cnc3sccn3c2=O)n1"
label_class = 1

[[record]]
compound = "CCOC(=O)C1CCCN(C(=O)c2cn(C)c(=O)c3cc(OC)c(OC)cc23)C1 (stereo not given)"
label_class = -1

[[record]]
compound = "Cc1cc(Cl)cc2c1NC(=O)[C@]21[C@@H]2C(=O)N(Cc3ccccc3)C(=O)[C@@H]2[C@@H]2CCCN21"
label_class = 1


###

Quick reference: inhibition of the listed items.
- Test: inhibitors of TNFa-induced NFkB p65 translocation, primary screen, imaging, HUVEC, MLSMR starter and 10KST1 sets (AID 438);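 further: compound added about 3h40 before a 20 min TNFalpha stimulation; signal is the nuclear over cytoplasmic p65 intensity ratio per well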
- Conditions: HUVEC TNFa-induced p65 nuclear translocation; at 2 µM, stronger effect = higher value, 0% TNFa-plus-vehicle, 100% no-TNFa wells
Active and inactive are the calls of the source.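 Rule for the calls: active = inhibition above 20% together with a positive visual image hit; inconclusive = visual image hit but inhibition not above 20%; inactive = no visual image hit.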
Measurement kind: inhibition

[[record]]
compound = "CC1(C)CC(=O)C=C(NC2CCS(=O)(=O)C2)C1 (stereo not given)"
measurement_kind = "inhibition"
result = "11.3% (inactive)"

[[record]]
compound = "CCCCCC1CC(CC(C)C(=O)Nc2nncs2)C(=O)O1 (stereo not given)"
measurement_kind = "inhibition"
result = "-7.3% (inactive)"

[[record]]
compound = "COc1ccc(CCNS(=O)(=O)c2ccc3oc(C(=O)O)c(C)c3c2)cc1OC"
measurement_kind = "inhibition"
result = "-11.4% (inactive)"

[[record]]
compound = "c1ccc2c(c1)sc1nnnn12"
measurement_kind = "inhibition"
result = "-2.1% (inactive)"

[[record]]
compound = "C/C(Nc1cccc(F)c1)=C(/C#N)C(N)=O"
measurement_kind = "inhibition"
result = "3.4% (inactive)"

[[record]]
compound = "O=S(=O)(c1ccc2nc(Cc3cccc(C(F)(F)F)c3)[nH]c2c1)N1CCOCC1"
measurement_kind = "inhibition"
result = "1% (inactive)"

[[record]]
compound = "CCOC(=O)c1ccc(NS(=O)(=O)c2ccc3c(c2)oc(=O)n3C)cc1"
measurement_kind = "inhibition"
result = "1.3% (inactive)"

[[record]]
compound = "CC(=O)N1CCN(c2ccc(N=Cc3c(O)n(Cc4ccccc4)c(=O)[nH]c3=O)cc2)CC1"
measurement_kind = "inhibition"
result = "6.8% (inactive)"

[[record]]
compound = "CCS(=O)(=O)NCCc1cc2c(OC)ccc(OC)c2[nH]c1=O"
measurement_kind = "inhibition"
result = "-15.2% (inactive)"

[[record]]
compound = "CCC(C)C(=O)Nc1nc2c(s1)C(=O)CC(C)(C)C2 (stereo not given)"
measurement_kind = "inhibition"
result = "6.9% (inactive)"

[[record]]
compound = "CC1CN(C(=O)c2cc3cc(Cl)cc(Cl)c3oc2=O)CC(C)O1 (stereo not given)"
measurement_kind = "inhibition"
result = "5.6% (inactive)"

[[record]]
compound = "Cn1c(C(=O)NCCCN2CCCCCC2)cc2c(=O)n(C)c3ccccc3c21"
measurement_kind = "inhibition"
result = "5.5% (inactive)"

[[record]]
compound = "COc1ccc(-c2nc(C#N)c(N3CCOCC3)o2)cc1OC"
measurement_kind = "inhibition"
result = "-4.8% (inactive)"

[[record]]
compound = "CCOC(=O)Cn1c2c(c(=N)c3ccccc31)CCC2"
measurement_kind = "inhibition"
result = "-7.1% (inactive)"

[[record]]
compound = "CCOC(=O)CC(=O)c1cc(OC)c(OC)c(OC)c1"
measurement_kind = "inhibition"
result = "-0.6% (inactive)"

[[record]]
compound = "CN1CCCN(CC(O)COCc2cccs2)CC1 (stereo not given)"
measurement_kind = "inhibition"
result = "-6.7% (inactive)"

[[record]]
compound = "CCOC(=O)C1CCN(C(c2cc3cc(C)cc(C)c3[nH]c2=O)c2nnnn2C2CCCCC2)CC1 (stereo not given)"
measurement_kind = "inhibition"
result = "-8.2% (inactive)"

[[record]]
compound = "Cn1cnc(S(=O)(=O)Nc2ccc(C(F)(F)F)cc2)c1"
measurement_kind = "inhibition"
result = "2.2% (inactive)"

[[record]]
compound = "COc1ccc(S(=O)(=O)N2CCN(CC(=O)Nc3ccc(C)c(F)c3)CC2)cc1"
measurement_kind = "inhibition"
result = "-8.1% (inactive)"

[[record]]
compound = "CCOC(=O)C1=C(C)Nc2nnnn2C1c1ccc(OC)c(Br)c1 (stereo not given)"
measurement_kind = "inhibition"
result = "5.8% (inactive)"

